Biological target: human PDE2A1 (Homo sapiens, UniProt O00408)
Construct: GST; purchased BPS Bioscience (San Diego, Calif.) 60020; host or cells: insect cells
Sequence (O00408 1-920 isoform O00408-2): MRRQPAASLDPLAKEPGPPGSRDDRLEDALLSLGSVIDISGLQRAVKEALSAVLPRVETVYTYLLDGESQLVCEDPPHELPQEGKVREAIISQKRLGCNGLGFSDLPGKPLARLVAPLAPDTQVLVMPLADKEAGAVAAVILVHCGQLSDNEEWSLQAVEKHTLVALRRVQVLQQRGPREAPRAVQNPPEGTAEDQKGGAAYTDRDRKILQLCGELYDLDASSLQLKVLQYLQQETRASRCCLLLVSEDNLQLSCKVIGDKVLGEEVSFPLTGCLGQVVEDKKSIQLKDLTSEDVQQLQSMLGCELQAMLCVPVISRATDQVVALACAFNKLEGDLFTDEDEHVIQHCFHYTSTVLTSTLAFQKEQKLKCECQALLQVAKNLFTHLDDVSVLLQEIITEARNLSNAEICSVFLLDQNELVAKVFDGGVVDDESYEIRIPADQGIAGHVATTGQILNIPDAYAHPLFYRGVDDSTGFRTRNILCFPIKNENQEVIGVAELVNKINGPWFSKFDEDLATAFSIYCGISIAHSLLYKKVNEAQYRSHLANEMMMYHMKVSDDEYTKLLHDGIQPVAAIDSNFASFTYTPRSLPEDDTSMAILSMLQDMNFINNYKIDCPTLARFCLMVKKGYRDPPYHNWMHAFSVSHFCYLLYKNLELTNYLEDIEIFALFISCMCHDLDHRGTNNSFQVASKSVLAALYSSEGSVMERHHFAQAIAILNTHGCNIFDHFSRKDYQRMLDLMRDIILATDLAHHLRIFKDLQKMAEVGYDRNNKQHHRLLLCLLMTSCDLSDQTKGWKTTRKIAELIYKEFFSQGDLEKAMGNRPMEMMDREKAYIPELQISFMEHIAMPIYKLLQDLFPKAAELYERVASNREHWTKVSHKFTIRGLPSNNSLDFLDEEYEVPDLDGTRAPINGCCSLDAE
Test: IMAP FP PDE selectivity panel, human PDE2A1
Assay type: biochemical
Settings: Lab B; read-out: Human PDE2 Ki (nM) Lab B
Lab note - cut at 100 nM for Ki: 1 if strictly below, 0 if not.

Worked examples follow.
INSERT INTO results (compound, target_or_test_system, label_class) VALUES
  ('Cc1cc(NC(c2ccc(C(C)(C)C)cc2)C(C)(C)O)n2ncnc2n1 (single isomer, unassigned) [Example 107]', 'human PDE2A1 (Homo sapiens, UniProt O00408)', 1),
  ('Cc1cc(N[C@@H](c2ccc(C(F)(F)F)cc2F)C(C)(C)C)n2ncnc2n1', 'human PDE2A1 (Homo sapiens, UniProt O00408)', 1);

Lab note: next compound to report on.
Request: Dear reviewer, please state whether Cc1cc(N[C@@H](c2ccc(S(F)(F)(F)(F)F)cc2)C(C)(C)C)n2ncnc2n1 has Ki strictly beneath 100 nM.
Result: 1
